Test system: M. tuberculosis H37Rv growth inhibition, 7H9 media
Experiment: M. tuberculosis growth inhibition, HTS (AID 449762);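 further: bacterial growth assessed after seven days of incubation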
Settings: measured here: IC90 growth inhibition
Results filed as inconclusive are left out.
Listed here: items and their measured IC90.
// note: answer is a bare numeric in µM

{"columns": ["compound", "unit.info", "IC90"],
 "data": [
  ["COc1ccc(OCC(=O)Nc2c(C(=O)N(CCN(C)C)Cc3ccco3)oc3ccccc23)cc1", "µM", 27.5]
]}

Recorded IC90 of COc1cccc2c1C(CO)N1C(C#N)C3CC(C(=O)O)C(C1C2)N3C (stereo not given) , please.
2.98

Record: CN(C)c1ccc(/C=C2\N=C(C(C)(C)C)OC2=O)cc1
34.5

Record: Cc1cc(C2N=C(N)Nc3nc4ccccc4n32)c(C)n1-c1ccccc1Cl (stereo not given)
16.6

Record: Cc1ccc(Cl)cc1N1CCN(C(=O)C2CCC(=O)N(C3CCCCCC3)C2)CC1 (stereo not given)
28.6

Record: COc1ccccc1/C=C/C(=O)Nc1ccc(S(=O)(=O)Nc2cc(C)on2)cc1
17.3

Record: Cc1ccc(-n2c(C)cc(/C=N/NC(N)=S)c2C)cc1
24.6

Record: CSCCCNC(=S)N1CCN(c2ccc(C(C)=O)cc2)CC1
44.1

###

Test system: M. tuberculosis H37Rv growth inhibition, 7H9 media
Assay: M. tuberculosis growth inhibition, HTS (AID 449762);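 further: bacterial growth assessed after seven days of incubation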
Conditions: measured here: IC90 growth inhibition
Inconclusive results are not listed.
measurement.kind: log10 IC90 (log10 of the value in µM)
Units before log transform: µM; reported quantity: IC90; transform: log10.

{"columns": ["compound", "subject.of.test", "log10 IC90"],
 "data": [
  ["CC(=O)/C(=C\\Nc1ccc(OCc2ccccc2)cc1)c1ccccc1", "M. tuberculosis H37Rv growth inhibition, 7H9 media", 1.08],
  ["C=C1c2c(Cl)ccc(O)c2C(O)=C2C(=O)[C@]3(O)C(O)=C(C(N)=O)C(=O)[C@@H](N(C)C)[C@@H]3[C@@H](O)C12 (stereo not given in full)", "M. tuberculosis H37Rv growth inhibition, 7H9 media", 0.69],
  ["Cc1cccc(N2CCN(CCCNC(=O)c3ccc(NC(=O)C4=CSCCO4)cc3)CC2C)c1 (stereo not given)", "M. tuberculosis H37Rv growth inhibition, 7H9 media", 1.47],
  ["CCCCC(=O)OCC(=O)N1N=C(c2c[nH]c3ccccc23)C(O)C1c1ccc(OC)cc1 (stereo not given)", "M. tuberculosis H37Rv growth inhibition, 7H9 media", 1.20]
]}

Alright, here's another compound for you.
Recorded log10 IC90 of O=C(COC(=O)C1=COCCO1)Nc1cccc(Oc2ccccc2)c1 , please.
1.74

###

System: M. tuberculosis H37Rv growth inhibition, 7H9 media
Assay: M. tuberculosis growth inhibition, HTS (AID 449762);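 further: bacterial growth assessed after seven days of incubation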
Conditions: measured here: IC90 growth inhibition
Records with an inconclusive call do not appear.
Listed here: items and their measured log10(IC90).
Units before log transform: µM; reported quantity: IC90; transform: log10.

Below, each entry is followed by its recorded log10(IC90) result.
{"columns": ["molecule", "subject.of.test", "log10(IC90)"],
 "data": [
  ["Cc1ccc(NC(=O)COC(=O)CCc2c[nH]c3ccccc23)cc1[N+](=O)[O-]", "M. tuberculosis H37Rv growth inhibition, 7H9 media", 0.68],
  ["CN(C)c1ccc(-c2cc(O)c3ncccc3c2)cc1", "M. tuberculosis H37Rv growth inhibition, 7H9 media", 0.62],
  ["CCCCCc1ccc(-c2cn(Cc3cccc(OC)c3)nn2)cc1", "M. tuberculosis H37Rv growth inhibition, 7H9 media", 1.70],
  ["CC(=O)N1CCN(c2ccc(OC[C@H]3CO[C@](Cn4ccnc4)(c4ccc(Cl)cc4Cl)O3)cc2)CC1", "M. tuberculosis H37Rv growth inhibition, 7H9 media", 1.40],
  ["CC(C)NC(=O)c1onc(CSc2ccc(F)c(F)c2)c1C(=O)O", "M. tuberculosis H37Rv growth inhibition, 7H9 media", 1.28]
]}

Recorded log10(IC90) of COc1ccc(-n2c(-c3ccc(Cl)cc3)c[n+]3c2CCc2ccccc2-3)cc1 , please.
1.38

Record: COCc1cc(=O)[nH]c(Nc2nc3ccccc3o2)n1
0.85

Record: COc1ccc(C)c2sc(N(CCN(C)C)C(=O)/C=C/c3cccs3)nc12
1.56

Record: C=CCNC(=O)c1onc(CCl)c1C(=O)OC
0.77

Record: c1ccc(Cn2nnc3c(N4CCc5ccccc5C4)ncnc32)cc1
1.86

Record: NC(=S)NNc1ccc(Cl)c(Cl)c1
0.97

Record: O=C(C[n+]1ccc(C(=O)c2ccccc2)cc1)Nc1ccc(C(F)(F)F)cc1
1.37

Record: CCOC(=O)c1ccc(Oc2nc(NC(C)(C)C)nc(N(C)C)n2)cc1
1.91

Record: Cc1ccc(NC(=O)COc2ccccc2CNC(C)(C)CC(C)(C)C)cc1
1.47

Record: CCCCOc1ccc(-c2nnn(C(C)C(=O)OCC)n2)cc1 (stereo not drawn)
0.73

Record: COC(=O)c1c(NC(=O)C(=O)N2CCCC2)sc2c1CC(C)(C)OC2
1.44

Record: CC(Oc1ccc(F)cc1)C(=O)Nc1sc2c(c1C(=O)NCc1cccnc1)CCCC2 (stereo not drawn)
1.72

Record: O=C(/C=C/c1ccc(O)cc1)c1ccc(NC2=C(N3CCCCC3)C(=O)c3ccccc3C2=O)cc1
1.13

Record: CCn1nc(NC(=O)c2ccncc2)c2cc3cc(C)ccc3nc21
1.67

Record: CC(C)(C)c1nn(-c2ccccc2)c2[nH]c(=O)c(CNCc3ccc4c(c3)OCO4)cc12
1.44
